Entry source: ChEMBL document CHEMBL2021850

Form field: IC50 (one value per entry).
Molecular target: Glucocorticoid receptor (Homo sapiens)
Test: Transactivation activity at glucocorticoid receptor in human HepG2 cells assessed as induction of tyrosine aminotransferase
Format: ADME, cell-based
Just the number in nM, nothing appended.

Worked set:
STRUCTURE_SMILES_STRING | QUANTITATIVE_READOUT
C[C@]12Cc3cnn(-c4ccc(F)cc4)c3C=C1CC[C@@H]1[C@@H]2[C@@H](O)C[C@@]2(C)[C@H]1CC[C@]2(O)C(=O)CSc1ccc2ccccc2c1 | 30.5
C[C@]12Cc3cnn(-c4ccccc4)c3C=C1CC[C@@H]1[C@@H]2[C@@H](O)C[C@@]2(C)[C@H]1CC[C@]2(O)C(=O)CO | 143
C[C@]12Cc3cnn(-c4ccc(F)cc4)c3C=C1CC[C@@H]1[C@@H]2[C@@H](O)C[C@@]2(C)[C@H]1CC[C@]2(O)C(=O)CSc1nc2ccccc2s1 | 101
C[C@]12Cc3cnn(-c4ccc(F)cc4)c3C=C1CC[C@@H]1[C@@H]2[C@@H](O)C[C@@]2(C)[C@H]1CC[C@]2(O)C(=O)COc1ccc2ccccc2c1 | 29.2

// field: IC50; key: C[C@]12Cc3cnn(-c4ccccc4)c3C=C1CC[C@@H]1[C@@H]2[C@@H](O)C[C@@]2(C)[C@H]1CC[C@]2(O)C(=O)CSc1ccc2ccccc2n1 ; value = 60.1

Reported IC50 ( C[C@]12Cc3cnn(-c4ccc(F)cc4)c3C=C1CC[C@@H]1[C@@H]2[C@@H](O)C[C@@]2(C)[C@H]1CC[C@]2(O)C(=O)CO ) = 40.9

Per the records, this compound ( Cn1c(SCC(=O)[C@@]2(O)CC[C@H]3[C@@H]4CCC5=Cc6c(cnn6-c6ccccc6)C[C@]5(C)[C@H]4[C@@H](O)C[C@@]32C)nc2ccccc21 ) has IC50 equal to 66.7

* * *

Experiment: Cmax in po dosed rat
Assay type: ADME, organism-based
Design: route oral
Conditions: in vivo
compounds and their reported Cmax
Just the number please, in ng/mL, no unit attached.

COMPOUND | RESULT_TYPE | U | QUANTITATIVE_READOUT
C[C@]12CCC(=O)C=C1CC[C@@H]1[C@@H]2[C@@H](O)C[C@@]2(C)[C@H]1CC[C@]2(O)C(=O)CSc1cnc2ccccc2n1 | Cmax | ng/mL | 255

According to the records, this compound C[C@]12Cc3cnn(-c4ccc(F)cc4)c3C=C1CC[C@@H]1[C@@H]2[C@@H](O)C[C@@]2(C)[C@H]1CC[C@]2(O)C(=O)CSc1nc2ncccc2o1 displays Cmax of 348

* * *

Tested on: Rattus norvegicus
Assay: Transactivation activity in Brown Norway rat lung inflammation model assessed as thymolysis measuring decrease in thymus weight at 10 mg/kg, po for 3 days
Format: organism-based
Parameters: dose 10 mg/kg, route oral; scale not given: the % may be the effect or the level left
Conditions: in vivo, 72 h
Decision: Activity >= 50% yields YES, all other cases yield NO.

Some solved cases for reference:
STRUCTURE_SMILES_STRING | ASSIGNED_LABEL
Cn1c(SCC(=O)[C@@]2(O)CC[C@@]3(C)[C@@H]4CCC5=CC(=O)CC[C@]5(C)[C@H]4[C@@H](O)C[C@@]32C)nc2ccccc21 | NO
C[C@]12Cc3cnn(-c4ccc(F)cc4)c3C=C1CC[C@@H]1[C@@H]2[C@@H](O)C[C@@]2(C)[C@H]1CC[C@]2(O)C(=O)CSc1nc2ncccc2o1 | YES
C[C@]12C=CC(=O)C=C1CC[C@@H]1[C@@H]2[C@@H](O)C[C@@]2(C)[C@H]1CC[C@]2(O)C(=O)CO | YES
C[C@]12Cc3cnn(-c4ccccc4)c3C=C1CC[C@@H]1[C@@H]2[C@@H](O)C[C@@]2(C)[C@H]1CC[C@]2(O)C(=O)CSc1nc2ncccc2o1 | YES

Okay, next one:
Kindly determine if Activity recorded for C[C@]12CCC(=O)C=C1CC[C@@H]1[C@@H]2[C@@H](O)C[C@@]2(C)[C@H]1CC[C@]2(O)C(=O)CSc1cnc2ccccc2n1 is above or exactly 50%. NO

* * *

Molecular target: Glucocorticoid receptor (Homo sapiens, UniProt P04150)
Sequence (P04150 whole entry): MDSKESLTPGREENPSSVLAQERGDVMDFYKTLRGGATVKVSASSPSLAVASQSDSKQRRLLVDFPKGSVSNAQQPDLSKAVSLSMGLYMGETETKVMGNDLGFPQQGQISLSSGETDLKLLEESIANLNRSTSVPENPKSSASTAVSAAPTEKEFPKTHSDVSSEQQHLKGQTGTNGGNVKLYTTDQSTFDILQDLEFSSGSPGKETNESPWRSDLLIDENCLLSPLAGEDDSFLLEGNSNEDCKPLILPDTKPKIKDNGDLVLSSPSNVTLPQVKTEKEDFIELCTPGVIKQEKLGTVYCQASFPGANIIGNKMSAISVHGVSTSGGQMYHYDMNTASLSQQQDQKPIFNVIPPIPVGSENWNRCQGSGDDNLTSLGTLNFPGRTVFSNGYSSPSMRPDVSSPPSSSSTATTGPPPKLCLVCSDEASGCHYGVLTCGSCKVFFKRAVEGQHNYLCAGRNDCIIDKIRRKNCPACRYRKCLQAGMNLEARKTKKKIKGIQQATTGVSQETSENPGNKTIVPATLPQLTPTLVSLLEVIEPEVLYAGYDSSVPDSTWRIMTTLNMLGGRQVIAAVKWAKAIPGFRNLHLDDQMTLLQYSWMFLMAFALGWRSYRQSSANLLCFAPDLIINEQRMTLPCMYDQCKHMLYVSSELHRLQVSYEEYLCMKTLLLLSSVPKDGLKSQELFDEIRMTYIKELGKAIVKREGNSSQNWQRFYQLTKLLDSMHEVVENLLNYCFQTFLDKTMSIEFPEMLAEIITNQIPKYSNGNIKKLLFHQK
Assay: Transrepression activity at glucocorticoid receptor in human H292 cells assessed as inhibition of TNF-induced IL8 production
Type: cell-based
RESULT_TYPE: IC50 (nM)
Reply numerically in nM, unit not repeated.

STRUCTURE_SMILES_STRING | U | IC50
C[C@]12Cc3cnn(-c4ccc(F)cc4)c3C=C1CC[C@@H]1[C@@H]2[C@@H](O)C[C@@]2(C)[C@H]1CC[C@]2(O)C(=O)CSc1nc2ccccc2c(=O)[nH]1 | nM | 3
C[C@]12Cc3cnn(-c4ccccc4)c3C=C1CC[C@@H]1[C@@H]2[C@@H](O)C[C@@]2(C)[C@H]1CC[C@]2(O)C(=O)COc1cnc2ccccc2n1 | nM | 3.7
C[C@]12Cc3cnn(-c4ccccc4)c3C=C1CC[C@@H]1[C@@H]2[C@@H](O)C[C@@]2(C)[C@H]1CC[C@]2(O)C(=O)CSc1ccc2ccccc2n1 | nM | 14.8
C[C@]12Cc3cnn(-c4ccccc4)c3C=C1CC[C@@H]1[C@@H]2[C@@H](O)C[C@@]2(C)[C@H]1CC[C@]2(O)C(=O)CSc1ccccn1 | nM | 1.5
Cn1c(SCC(=O)[C@@]2(O)CC[C@@]3(C)[C@@H]4CCC5=CC(=O)CC[C@]5(C)[C@H]4[C@@H](O)C[C@@]32C)nc2ccccc21 | nM | 56.1

Sample C[C@]12Cc3cnn(-c4ccc(F)cc4)c3C=C1CC[C@@H]1[C@@H]2[C@@H](O)C[C@@]2(C)[C@H]1CC[C@]2(O)C(=O)CSc1nc2ccccc2s1 , system: Glucocorticoid receptor (Homo sapiens, UniProt P04150). Its IC50 is 1.7

* * *

# IC50 per record follows
Biological target: Glucocorticoid receptor (Homo sapiens, UniProt P04150)
Assay: Transrepression activity at glucocorticoid receptor in human H292 cells assessed as inhibition of TNF-induced IL8 production
Type: cell-based
Numeric answer only, unit nM assumed.

Would you please look over these solved cases?
STRUCTURE_SMILES_STRING | STUDY_TARGET | U | IC50
C[C@]12CCC(=O)C=C1CC[C@@H]1[C@@H]2[C@@H](O)C[C@@]2(C)[C@H]1CC[C@]2(O)C(=O)CSc1ccccn1 | Glucocorticoid receptor (Homo sapiens, UniProt P04150) | nM | 23.8
C[C@]12Cc3cnn(C4CCCCC4)c3C=C1CC[C@@H]1[C@@H]2[C@@H](O)C[C@@]2(C)[C@H]1CC[C@]2(O)C(=O)CSc1nc2ccccc2o1 | Glucocorticoid receptor (Homo sapiens, UniProt P04150) | nM | 3.12
C[C@]12Cc3cnn(-c4ccc(F)cc4)c3C=C1CC[C@@H]1[C@@H]2[C@@H](O)C[C@@]2(C)[C@H]1CC[C@]2(O)C(=O)CSc1ccccn1 | Glucocorticoid receptor (Homo sapiens, UniProt P04150) | nM | 0.5
C[C@]12Cc3cnn(-c4ccccc4)c3C=C1CC[C@@H]1[C@@H]2[C@@H](O)C[C@@]2(C)[C@H]1CC[C@]2(O)C(=O)CSc1nc2ccccc2s1 | Glucocorticoid receptor (Homo sapiens, UniProt P04150) | nM | 7.5
C[C@]12Cc3cnn(-c4ccc(F)cc4)c3C=C1CC[C@@H]1[C@@H]2[C@@H](O)C[C@@]2(C)[C@H]1CC[C@]2(O)C(=O)CSc1cnc2ccccc2n1 | Glucocorticoid receptor (Homo sapiens, UniProt P04150) | nM | 1.99

Now take the following molecule into account.
Entry C[C@]12Cc3cnn(-c4ccc(F)cc4)c3C=C1CC[C@@H]1[C@@H]2[C@@H](O)C[C@@]2(C)[C@H]1CC[C@]2(O)C(=O)CSc1ccc2ccccc2c1 — recorded IC50 = 0.72

* * *

Target: Glucocorticoid receptor (Rattus norvegicus, UniProt P06536)
Sequence (P06536 whole entry): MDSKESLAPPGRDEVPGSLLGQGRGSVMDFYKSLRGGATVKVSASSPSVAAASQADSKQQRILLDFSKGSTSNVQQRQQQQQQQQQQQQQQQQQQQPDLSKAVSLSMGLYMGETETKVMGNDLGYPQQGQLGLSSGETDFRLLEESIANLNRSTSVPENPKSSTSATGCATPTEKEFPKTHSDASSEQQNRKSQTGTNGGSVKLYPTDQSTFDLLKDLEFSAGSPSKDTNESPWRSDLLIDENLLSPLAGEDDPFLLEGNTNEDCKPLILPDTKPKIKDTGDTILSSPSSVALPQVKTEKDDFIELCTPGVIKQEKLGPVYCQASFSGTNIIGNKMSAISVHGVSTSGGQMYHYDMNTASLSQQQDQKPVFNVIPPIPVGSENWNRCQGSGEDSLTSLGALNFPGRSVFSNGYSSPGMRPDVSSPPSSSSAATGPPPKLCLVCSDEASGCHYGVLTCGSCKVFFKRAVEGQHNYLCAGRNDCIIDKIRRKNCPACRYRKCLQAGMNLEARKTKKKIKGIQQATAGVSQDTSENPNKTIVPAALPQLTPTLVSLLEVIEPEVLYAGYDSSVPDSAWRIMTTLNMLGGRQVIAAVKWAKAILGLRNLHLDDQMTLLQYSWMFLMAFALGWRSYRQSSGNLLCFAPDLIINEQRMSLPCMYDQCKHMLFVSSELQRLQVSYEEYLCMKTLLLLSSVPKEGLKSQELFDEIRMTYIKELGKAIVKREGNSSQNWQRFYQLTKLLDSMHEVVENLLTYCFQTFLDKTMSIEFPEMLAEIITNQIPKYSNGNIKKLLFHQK
Test: Transactivation activity at glucocorticoid receptor in rat H4II-E cells assessed as induction of tyrosine aminotransferase
RESULT_TYPE: pIC50
# pIC50 = -log10(concentration in molar units)

STRUCTURE_SMILES_STRING | QUANTITATIVE_READOUT
C[C@]12Cc3cnn(-c4ccc(F)cc4)c3C=C1CC[C@@H]1[C@@H]2[C@@H](O)C[C@@]2(C)[C@H]1CC[C@]2(O)C(=O)CSc1nc2ccccc2s1 | 7.62

In plain terms, C[C@]12Cc3cnn(C4CCCCC4)c3C=C1CC[C@@H]1[C@@H]2[C@@H](O)C[C@@]2(C)[C@H]1CC[C@]2(O)C(=O)CSc1nc2ccccc2o1 has a documented pIC50 of 7.50

Entry Cc1nc(SCC(=O)[C@@]2(O)CC[C@H]3[C@@H]4CCC5=Cc6c(cnn6C6CCCCC6)C[C@]5(C)[C@H]4[C@@H](O)C[C@@]32C)sc1C , pIC50 reported as 6.87

Form: compound = C[C@]12Cc3cnn(-c4ccccc4)c3C=C1CC[C@@H]1[C@@H]2[C@@H](O)C[C@@]2(C)[C@H]1CC[C@]2(O)C(=O)CSc1cnc2ccccc2n1 ; pIC50 = 6.95

Sample C[C@]12Cc3cnn(-c4ccc(F)cc4)c3C=C1CC[C@@H]1[C@@H]2[C@@H](O)C[C@@]2(C)[C@H]1CC[C@]2(O)C(=O)CSc1ncccn1 ; pIC50 observed: 7.84

Short answer for C[C@]12Cc3cnn(-c4ccccc4)c3C=C1CC[C@@H]1[C@@H]2[C@@H](O)C[C@@]2(C)[C@H]1CC[C@]2(O)C(=O)CSc1ccccn1 : pIC50 was 6.65
